Parameter: pIC50. Scope: all listed entries.
Sequence of the target: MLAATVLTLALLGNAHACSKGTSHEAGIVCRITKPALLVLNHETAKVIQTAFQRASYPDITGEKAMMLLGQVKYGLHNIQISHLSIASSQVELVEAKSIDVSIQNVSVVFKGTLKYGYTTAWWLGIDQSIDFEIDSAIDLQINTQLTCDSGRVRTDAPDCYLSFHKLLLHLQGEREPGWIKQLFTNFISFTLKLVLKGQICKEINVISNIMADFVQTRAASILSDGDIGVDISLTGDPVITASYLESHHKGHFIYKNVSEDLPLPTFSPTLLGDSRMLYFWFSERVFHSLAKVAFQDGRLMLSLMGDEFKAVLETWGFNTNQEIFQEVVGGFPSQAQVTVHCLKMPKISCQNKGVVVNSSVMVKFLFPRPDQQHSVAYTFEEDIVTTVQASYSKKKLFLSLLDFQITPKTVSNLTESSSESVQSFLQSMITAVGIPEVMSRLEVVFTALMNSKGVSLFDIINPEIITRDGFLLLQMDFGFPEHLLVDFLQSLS
pIC50: −log10 of the molar value.
readout label: pIC50

{"smiles entry": "Clc1ccc(N2CCN(c3nc(Cc4ccccc4)nc(N4CCNCC4)n3)CC2)cc1", "experimental value": 5.05}
{"smiles entry": "Clc1ccc(N2CCN(c3nc(NCCc4ccccc4)nc(N4CCNCC4)n3)CC2)cc1", "experimental value": 4.35}
{"smiles entry": "Clc1ccc(N2CCN(c3nc(Cc4ccc5ccccc5c4)nc(N4CCNCC4)n3)CC2)cc1", "experimental value": 5.30}
{"smiles entry": "Clc1ccc(N2CCN(c3nc(-c4ccccc4)nc(N4CCNCC4)n3)CC2)cc1", "experimental value": 4.96}

---

Biological target: Cholesteryl ester transfer protein (Homo sapiens) (UniProt P11597)
Assay: Compound was tested for inhibitory activity against Cholesteryl ester transfer protein at 50 uM

{"smiles entry": "Oc1nc(N2CCNCC2)nc(N2CCN(c3ccc(Cl)cc3)CC2)n1", "inhibition (%)": 11}
{"smiles entry": "Clc1ccc(N2CCN(c3ncnc(N4CCNCC4)n3)CC2)cc1", "inhibition (%)": 14}
{"smiles entry": "Clc1ccc(N2CCN(c3nc(NCc4ccccc4)nc(N4CCNCC4)n3)CC2)cc1", "inhibition (%)": 52}
{"smiles entry": "CCCCOc1nc(N2CCNCC2)nc(N2CCN(c3ccc(Cl)cc3)CC2)n1", "inhibition (%)": 57}
{"smiles entry": "Clc1ccc(N2CCN(c3nc(Cl)nc(N4CCNCC4)n3)CC2)cc1", "inhibition (%)": 37}
{"smiles entry": "C=Cc1nc(N2CCNCC2)nc(N2CCN(c3ccc(Cl)cc3)CC2)n1", "inhibition (%)": 48}
{"smiles entry": "Clc1ccc(N2CCN(c3nc(OCCc4ccccc4)nc(N4CCNCC4)n3)CC2)cc1", "inhibition (%)": 66}

Cited source for all entries: ChEMBL document CHEMBL1151073
